Hello, the source for this data is the supplement of paper PMC10127200, in case you need it.

Measured Euclidean distance values are reported for all entries that follow.
- Test system: HEPG2
- protocol-description: Euclidean distance of Cell Painting phenotypic profile (signed KS, 77 features) to DMSO centroid (dimensionless distance); higher = stronger phenotypic change vs DMSO (phenoactivity)
- condition-set: 48 h; 5 or 10 uM (library dependent)

Use the examples below as a reference point.
For reference, reported Euclidean distance for "C[N+]1(C)[C@@H]2C[C@@H](OC(=O)[C@H](CO)c3ccccc3)C[C@H]1[C@@H]1O[C@@H]12" stands at 0.666

For reference, reported Euclidean distance for "CO[C@H]1CC[C@@H](O[C@H]2C[C@H]([C@]3(C)CC[C@]4(C[C@H](O)[C@@H](C)[C@@H]([C@@H](C)/C=C(\C)C(=O)[C@H](C)C[C@H](C)C(=O)O)O4)O3)O[C@]3(O[C@@H]([C@H]4O[C@@](O)(CO)[C@H](C)C[C@@H]4C)C[C@@H]3C)[C@@H]2C)O[C@@H]1C" stands at 3.85

For reference, reported Euclidean distance for "C=C(C)[C@@H]1[C@H]2OC(=O)[C@@H]1[C@]1(O)C[C@H]3O[C@]34C(=O)O[C@H]2[C@]14C" stands at 0.815

For reference, reported Euclidean distance for N.N.[Cl][Pt][Cl] [Cisplatin] stands at 1.55

For reference, reported Euclidean distance for "Nc1ccncc1" stands at 0.429

Further cases:
For reference, reported Euclidean distance for CC(=O)O[C@H]1CC[C@H]2[C@@H]3CCC4=CC(=O)CCC4=C3C=C[C@]12C [Trenbolone acetate] stands at 1.19
